target: Mu-type opioid receptor (Cavia porcellus, UniProt P97266); assay: Agonist activity at mu opioid receptor by inhibition of muscle contraction in electrically stimulated isolated guinea pig ileum
Sequence (P97266 whole entry): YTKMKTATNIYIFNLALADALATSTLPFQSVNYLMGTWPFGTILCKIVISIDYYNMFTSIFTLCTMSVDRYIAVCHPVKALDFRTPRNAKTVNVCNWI
readout_type: pIC50
One number for each entry, as −log10 of the molar value.

>  <compound_string>
CCCC[C@H](NC(=O)[C@@H](Cc1c[nH]c2ccccc12)NC(=O)OC12CC3CC(CC(C3)C1)C2)C(=O)N[C@@H](CC(=O)O)C(=O)N[C@@H](Cc1ccccc1)C(=O)NNC(=O)[C@H](Cc1ccccc1)NC(=O)CNC(=O)[C@@H](C)NC(=O)[C@@H](N)Cc1ccc(O)cc1

>  <system_name>
Mu-type opioid receptor (Cavia porcellus, UniProt P97266)

>  <measured>
6.19

$$$$

We now examine a further compound.
# input Reported pIC50, compound CCCC[C@H](NC(=O)[C@H](Cc1c[nH]c2ccccc12)NC(=O)OC(C)(C)C)C(=O)N[C@@H](CC(=O)O)C(=O)N[C@@H](Cc1ccccc1)C(=O)NNC(=O)[C@H](Cc1ccccc1)NC(=O)CNC(=O)[C@@H](C)NC(=O)[C@@H](N)Cc1ccc(O)cc1 : ____
# output 7.26
